In this section we review reported pKi values for a set of molecules.
# SYSTEM: UniProt:Q9YQ12
# Sequence (Q9YQ12 whole entry): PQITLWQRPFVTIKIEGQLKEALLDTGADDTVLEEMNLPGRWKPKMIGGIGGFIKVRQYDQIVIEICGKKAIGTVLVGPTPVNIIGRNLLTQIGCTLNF
# ASSAY_DETAILS: Inhibition of HIV1 LAI protease by fluorescence assay
A value of pKi is the negative decimal logarithm of a concentration given in moles per litre.

# annotated cases, reported pKi shown
COc1ccc(S(=O)(=O)N(CC(C)C)C[C@@H](O)[C@H](Cc2ccccc2)NC(=O)O[C@H]2CC(C)(C)C[C@H]3O[C@@H]4OCC[C@@H]4[C@@H]23)cc1: 8.06
COc1ccc(S(=O)(=O)N(CC(C)C)C[C@@H](O)[C@H](Cc2ccccc2)NC(=O)O[C@H]2CCC[C@H]3O[C@@H]4OCCC[C@@H]4[C@@H]23)cc1: 9.39
COc1ccc(S(=O)(=O)N(CC(C)C)C[C@@H](O)[C@H](Cc2ccccc2)NC(=O)O[C@@H]2CS(=O)(=O)C[C@@H]3O[C@H]4OCC[C@H]4[C@@H]32)cc1: 7.98
COc1ccc(S(=O)(=O)N(CC(C)C)C[C@@H](O)[C@H](Cc2ccccc2)NC(=O)O[C@@H]2CC(C)(C)C[C@@H]3O[C@H]4OCC[C@H]4[C@@H]32)cc1: 6.86
COc1ccc(S(=O)(=O)N(CC(C)C)C[C@@H](O)[C@H](Cc2ccccc2)NC(=O)O[C@H]2COC[C@H]3O[C@@H]4OCC[C@@H]4[C@@H]23)cc1: 10.68

For the next question, use this molecule.
Q. Sample `COc1ccc(S(=O)(=O)N(CC(C)C)C[C@@H](O)[C@H](Cc2ccccc2)NC(=O)O[C@H]2CS(=O)(=O)C[C@H]3O[C@@H]4OCC[C@@H]4[C@@H]23)cc1` — what was its pKi?
A. 9.22
